The following compounds are shown together with reported MIC values.
Test system: Staphylococcus epidermidis
ASSAY_TEXT: Antibacterial activity against Staphylococcus epidermidis ATCC12228 assessed as bacterial growth inhibition after 24 hrs by broth dilution method
Assay type: functional
MEASUREMENT_PARAMETERS: ATCC12228, 24 h
ASSAY_ENDPOINT: MIC

[[record]]
smiles_code = "COc1ccc(/C=C/c2cc(OC)cc(O)c2C(=O)O)cc1"
recorded_value = "> 128 mg/L"

[[record]]
smiles_code = "COc1ccc(/C=C/c2cc(OC)c(CC=C(C)C)c(O)c2C(=O)O)cc1"
recorded_value = "32 mg/L"

[[record]]
smiles_code = "COC(=O)c1c(O)cc(OC)cc1/C=C/c1cccc(C#N)c1"
recorded_value = "> 128 mg/L"

[[record]]
smiles_code = "COC(=O)c1c(/C=C/c2cccc(F)c2)cc(OC)c(CC=C(C)C)c1O"
recorded_value = "> 128 mg/L"

